EXPERIMENT NOTES: in vitro
SETTINGS: human, Caco-2, pH 7.4
Description: Example 28: Caco-2 Permeability Assay The goal of this assay was to evaluate the intestinal absorption potential of drug candidates using Caco-2 cell lines. 1. Prewarm Prewarm HBSS Buffer in 37° C. water bath 2. Sonicate Take compounds from −20° C., sonicate for a few minutes (no less than 1 minute) HBSS buffer with 0.3% DMSO and 5 μM LY: add 150 μL DMSO and 50 μL LY (5 mM) into 50 ml HBSS buffer (pH 7.4). […] 1. Papp values were calculated based on calculated concentrations. […]
QUANTITY MEASURED: efflux ratio at 90 min, 10 μM

[
  {
    "COMPOUND": "CCOCc1c([C@H]2CCC[C@@H](c3ncccc3C)N2C)nc2cccc(N3CCN(C(C)C)CC3)n12 [Compound I-57]",
    "VALUE OBSERVED": "0.1 to 10"
  }
]

I have this compound here, CCOCc1c([C@H]2CCC[C@@H](c3ncccc3C)N2C)nc2cccc(N3CCN(C)CC3)n12 [Compound I-21] , and I need its recorded efflux ratio at 90 min, 10 μM.
0.1 to 10

I have this compound here, Cc1cccnc1[C@@H]1CCC[C@H](c2cn3c(N4CCN(C5CCOCC5)CC4)cccc3n2)N1C [Compound I-53] , and I need its recorded efflux ratio at 90 min, 10 μM.
0.1 to 10

I have this compound here, Cc1cccnc1[C@H]1CCC[C@@H](c2nc3ccccn3c2CCCN(C)C)N1C (stereo in doubt) [Compound I-28] , and I need its recorded efflux ratio at 90 min, 10 μM.
> 30

I have this compound here, Cc1cccnc1[C@@H]1CCC[C@H](c2cn3ccccc3n2)N1Cc1ccccc1-n1cccn1 [Compound I-16] , and I need its recorded efflux ratio at 90 min, 10 μM.
0.1 to 10

I have this compound here, Cc1cccnc1[C@@H]1CCC[C@H](c2cn3c(N4CC5CCC(C4)N5)cccc3n2)N1C [Compound I-109] , and I need its recorded efflux ratio at 90 min, 10 μM.
> 30

I have this compound here, CN1CC2CCC(C1)N2c1cccc2nc([C@H]3CCC[C@@H](c4ncccc4Cl)N3C)c(CO)n12 [Compound I-134] , and I need its recorded efflux ratio at 90 min, 10 μM.
0.1 to 10

I have this compound here, CCN1CCN(c2cccc3nc([C@H]4CCC[C@@H](c5ncccc5C)N4C)c(CO)n23)CC1 [Compound I-61] , and I need its recorded efflux ratio at 90 min, 10 μM.
0.1 to 10

I have this compound here, CN1CCN(c2cccc3nc([C@@H]4CCC[C@H](c5ncccc5Cl)N4)cn23)CC1 (single isomer, unassigned) [Compound I-189] , and I need its recorded efflux ratio at 90 min, 10 μM.
0.1 to 10

I have this compound here, CN(C)C1CCN(c2cccc3nc([C@H]4CCC[C@@H](c5ncccc5Cl)N4C)c(CO)n23)CC1 [Compound I-136] , and I need its recorded efflux ratio at 90 min, 10 μM.
10 to 30

I have this compound here, CN1CCN(c2cccc3nc([C@H]4CCC[C@@H](c5ncccc5Cl)N4C)c(Cl)n23)CC1 [Compound I-115] , and I need its recorded efflux ratio at 90 min, 10 μM.
0.1 to 10

I have this compound here, Cc1cccnc1[C@@H]1CCC[C@H](c2nc3cccc(N4CCN(C(C)C)CC4)n3c2Cl)N1C [Compound I-92] , and I need its recorded efflux ratio at 90 min, 10 μM.
0.1 to 10

I have this compound here, Cc1cccnc1[C@@H]1CCC[C@H](c2cn3c(N4CCNCC4)cccc3n2)N1C [Compound I-4] , and I need its recorded efflux ratio at 90 min, 10 μM.
> 30
